The reported measurements were obtained from paper PMC11062922.

Measured potency estimated from few doses of individual entries
system: HCK; design: species or system human, MV4-11 + K-562 + COLO205 + SK-N-BE2 + OVCAR-8; settings: read-out: apparent Kd; compound concentrations:100 nM and 1000 nM (sheet 'Samples'); n = 1
Answer in nM, number only, no unit symbol.

Check out these entries, answers already filled in.
CN1C[C@@H]2Cn3c(c(C4=C(c5cn(C)c6ccccc56)C(=O)NC4=O)c4ccccc43)C[C@H]2C1.Cl    317
CCN(CC)CCOc1ccc(Nc2ncc3cc(-c4c(Cl)cccc4Cl)c(=O)n(C)c3n2)cc1    299
Cc1ccc2c(-c3ccncc3)c(-c3ccc(F)cc3)nn2c1.Cl [GW461484A]    755

Input: What value of potency estimated from few doses has been reported for the following compound? Cl.Cl.NCC(C(=O)Nc1cc(Br)c(-c2ccnc3[nH]ccc23)s1)c1ccccc1.NCC(C(=O)Nc1cc(Br)c(-c2ccnc3[nH]ccc23)s1)c1ccccc1 (stereo not drawn) [GSK1269851A]
Output: 554

Input: Here is the next compound: NCCNS(=O)(=O)c1ccc(-c2ccnc3[nH]ccc23)cc1 [GSK977617A]
Output: 765

Input: Here is the next compound: CNC(=O)c1ccccc1Nc1nc(Nc2ccc(N3CCOCC3)cc2)ncc1Cl.Cl [GSK1576028A]
Output: 676

* * *

Measured potency estimated from few doses of individual entries
system: PIM1; parameters: species or system human, MV4-11 + K-562 + COLO205 + SK-N-BE2 + OVCAR-8; conditions: read-out: apparent Kd; compound concentrations:100 nM and 1000 nM (sheet 'Samples'); n = 1
Answer in nM, number only, no unit symbol.

O=C(Nc1n[nH]c2nc(-c3ccccc3)c(Br)cc12)C1CC1    1280
Cc1cnc(Nc2ccc(F)cc2Cl)nc1-c1c[nH]c(C(=O)N[C@H](CO)c2cccc(Cl)c2)c1 [Vertex11e]    939
CCn1c(-c2nonc2N)nc2cncc(CNC3CCNCC3)c21 [SB-747651A]    1120

Input: Enter reported potency estimated from few doses observed with PIM1 for "CCn1c(-c2nonc2N)nc2cncc(C(=O)N3CC[C@H](N)C3)c21.Cl"
Output: 30.8

* * *

test system: GSK3A; parameters: species or system human, MV4-11 + K-562 + COLO205 + SK-N-BE2 + OVCAR-8; conditions: read-out: apparent Kd; compound concentrations:100 nM and 1000 nM (sheet 'Samples'); n = 1
Measured potency estimated from few doses of individual entries

Check out these entries, answers already filled in.
CC(=O)Nc1n[nH]c2ncc(-c3ccccc3)cc12    748 nM
COc1cc2ncn(-c3cc(OCCCc4ccccc4)c(C(N)=O)s3)c2cc1OC [GSK205189A]    575 nM
O=C1NC(=O)C(N2CCc3ccccc32)=C1c1ccccc1Cl    104 nM
CCn1c(-c2nonc2N)nc2c(C#CC(C)(C)O)nc(O[C@@H](CN)c3ccccc3)cc21.O=C(O)C(F)(F)F [GSK1007102B]    46.1 nM
CC(C)c1ccc(Nc2nccc(-c3cnn4ncccc34)n2)cc1 [GW805758X]    888 nM
CN(C)CCCC(=O)Nc1n[nH]c2nnc(-c3ccccc3)cc12.Cl    6.15 nM
CN1CCC(C(=O)Nc2n[nH]c3nnc(-c4ccccc4)cc23)CC1.Cl    3.32 nM
Cn1cc(C2=C(c3cn(CCCSC(=N)N)c4ccccc34)C(=O)NC2=O)c2ccccc21    158 nM

Input: What value of potency estimated from few doses has been reported for the following compound? "O=C(Nc1n[nH]c2nc(-c3cccc(O)c3)ccc12)C1CC1"
Output: 147 nM

Input: Here is the next compound: Cc1occc1-c1nc(N)c(OC[C@@H](N)Cc2c[nH]c3ccccc23)cc1-c1cc2c(C)n[nH]c2cn1 [GSK1660450B]
Output: 273 nM

Input: Here is the next compound: "CCn1c(-c2nonc2N)nc2cncc(C(=O)N3CC[C@H](N)C3)c21.Cl"
Output: 1100 nM

Input: Here is the next compound: "CCN1CCN(CCCC(=O)Nc2n[nH]c3nc(-c4ccc(O)cc4)c(Br)cc23)CC1"
Output: 4.8 nM

Input: Here is the next compound: CN(C)CC1CCn2c(c(C3=C(c4cn(C)c5ccccc45)C(=O)NC3=O)c3ccccc32)C1 (centres unmarked)
Output: 43.8 nM

Input: Here is the next compound: "Cl.Cn1c(=O)c(Cc2ccc(F)cc2F)cc2cnc(NC3CCOCC3)nc21"
Output: 484 nM

Input: Here is the next compound: CCn1c(-c2nonc2N)nc2c(C#CC(C)(C)O)nc(OCCNC)cc21.Cl [GSK949675A]
Output: 70.4 nM

Input: Here is the next compound: "COc1cccc(C2=C(Nc3cccc(C(=O)O)c3)C(=O)NC2=O)c1"
Output: 830 nM

Input: Here is the next compound: NS(=O)(=O)c1ccc(N/N=C2\C(=O)Nc3ccc(C(=O)NCCc4c[nH]cn4)cc32)cc1 [GW300660X]
Output: 1220 nM

* * *

Measured potency estimated from few doses of individual entries
tested on: MARK4; parameters: species or system human, MV4-11 + K-562 + COLO205 + SK-N-BE2 + OVCAR-8; conditions: read-out: apparent Kd; compound concentrations:100 nM and 1000 nM (sheet 'Samples'); n = 1
Respond with the figure and its unit, in that order.

Check out these entries, answers already filled in.
CCn1c(-c2nonc2N)nc2c(C#CC(C)(C)O)ncc(OC[C@@H]3CCCN3)c21.O=C(O)C(F)(F)F [GSK614526A]    1.04 µM
CC(C)Oc1ccc2c(-c3ccnc(Nc4ccc(N5CCN(C)CC5)cc4)n3)cnn2n1 [GW696155X]    1.8 µM
CCn1c(-c2nonc2N)nc2c(C#CC(C)(C)O)ncc(OCCCCN)c21.CCn1c(-c2nonc2N)nc2c(C#CC(C)(C)O)ncc(OCCCCN)c21.O=C(O)C(F)(F)F.O=C(O)C(F)(F)F [GSK507274A]    0.629 µM

Input: What value of potency estimated from few doses has been reported for the following compound? "Nc1c(C(=O)c2ccccc2)cnn1-c1ccc(F)cc1"
Output: 1.29 µM

Input: Here is the next compound: Cc1occc1-c1nc(N)c(OC[C@@H](N)Cc2c[nH]c3ccccc23)cc1-c1cc2c(C)n[nH]c2cn1 [GSK1660450B]
Output: 1.11 µM

* * *

Measured potency estimated from few doses of individual entries
test system: MAPK9; design: species or system human, MV4-11 + K-562 + COLO205 + SK-N-BE2 + OVCAR-8; details: read-out: apparent Kd; compound concentrations:100 nM and 1000 nM (sheet 'Samples'); n = 1

CN(C)CCOc1ccc(-c2cc(-c3c[nH]nc3-c3ccccn3)ccn2)cc1 [GW835314X]    2050 nM
CNc1ncc2cc(Oc3ccc(F)cc3F)c(=O)n(C)c2n1    1640 nM
CS(=O)(=O)CCn1c(=O)c(Oc2ccc(F)cc2F)cc2cnc(NC3CCOCC3)nc21    494 nM
Cl.Cn1c(=O)c(Oc2ccccc2)cc2cnc(NC3CCOCC3)nc21    349 nM
O=c1c(Oc2ccc(F)cc2F)cc2cnc(NC3CCOCC3)nc2n1CCCO    15.9 nM

Input: Enter reported potency estimated from few doses observed with MAPK9 for "O=c1[nH]c2nc(NC3CCOCC3)ncc2cc1Oc1ccc(F)cc1F"
Output: 98.4 nM

Input: Here is the next compound: "N#CCn1c(=O)c(Oc2ccc(F)cc2F)cc2cnc(NC3CCOCC3)nc21"
Output: 146 nM

Input: Here is the next compound: "CC(C)Nc1ncc2cc(Oc3ccc(F)cc3F)c(=O)n(C)c2n1.Cl"
Output: 369 nM

* * *

Measured potency estimated from few doses of individual entries
tested on: PRKCB; parameters: species or system human, MV4-11 + K-562 + COLO205 + SK-N-BE2 + OVCAR-8; conditions: read-out: apparent Kd; compound concentrations:100 nM and 1000 nM (sheet 'Samples'); n = 1
Answer in nM, number only, no unit symbol.

Check out these entries, answers already filled in.
Cn1cc(C2=C(c3cn(CCCSC(=N)N)c4ccccc34)C(=O)NC2=O)c2ccccc21    105
CCn1c(-c2nonc2N)nc2cncc(Br)c21    1350
CCn1c(-c2nonc2N)nc2cncc(C(=O)N3CC[C@H](N)C3)c21.Cl    752

Input: Enter reported potency estimated from few doses observed with PRKCB for CCn1c(-c2nonc2N)nc2cncc(CNC3CCNCC3)c21 [SB-747651A]
Output: 153

Input: Here is the next compound: "COc1ccc(O)c(C(=O)c2ccc(C(=O)O[C@@H]3CCCNC[C@H]3NC(=O)c3ccncc3)cc2)c1F.Cl"
Output: 506

Input: Here is the next compound: "CN(C)C/C=C/C(=O)Nc1ccc(C(=O)Nc2cccc(Nc3ncc(Cl)c(-c4c[nH]c5ccccc45)n3)c2)cc1"
Output: 727
